target: GABA channels expressing the α1 subunit (GABRA1-GABRB3-GABRG2) in HEK cells (Homo sapiens (Human), UniProt P14867+P18507); experiment: QPatch whole-cell patch-clamp electrophysiology, enhancement of GABA current (α1); type: cell-based; conditions: −60 mV, approximately EC10 GABA
Sequence (P14867 28-456): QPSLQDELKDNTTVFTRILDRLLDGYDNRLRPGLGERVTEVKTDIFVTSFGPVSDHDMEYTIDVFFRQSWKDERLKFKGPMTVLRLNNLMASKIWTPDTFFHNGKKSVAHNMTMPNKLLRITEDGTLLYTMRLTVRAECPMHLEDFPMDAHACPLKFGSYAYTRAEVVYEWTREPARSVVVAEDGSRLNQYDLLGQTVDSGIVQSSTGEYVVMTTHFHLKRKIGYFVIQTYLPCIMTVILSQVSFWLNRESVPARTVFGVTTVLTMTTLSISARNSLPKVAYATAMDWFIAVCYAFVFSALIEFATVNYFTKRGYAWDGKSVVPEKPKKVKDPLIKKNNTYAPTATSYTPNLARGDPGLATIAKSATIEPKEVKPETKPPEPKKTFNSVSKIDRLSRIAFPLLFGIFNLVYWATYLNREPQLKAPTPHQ
Sequence (P28472 26-473 partner): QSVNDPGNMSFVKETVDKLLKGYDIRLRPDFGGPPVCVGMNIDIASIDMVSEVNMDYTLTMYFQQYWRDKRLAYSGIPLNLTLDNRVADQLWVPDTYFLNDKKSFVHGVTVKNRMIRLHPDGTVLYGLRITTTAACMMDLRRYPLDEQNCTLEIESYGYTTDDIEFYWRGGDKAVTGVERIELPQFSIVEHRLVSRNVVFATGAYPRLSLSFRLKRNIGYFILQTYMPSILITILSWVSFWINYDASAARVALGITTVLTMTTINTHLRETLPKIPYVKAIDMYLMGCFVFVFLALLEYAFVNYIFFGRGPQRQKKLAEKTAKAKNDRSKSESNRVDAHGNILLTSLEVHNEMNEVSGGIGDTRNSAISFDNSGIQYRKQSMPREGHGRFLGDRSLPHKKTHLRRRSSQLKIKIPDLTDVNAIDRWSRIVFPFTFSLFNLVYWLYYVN
Sequence (P18507 40-475): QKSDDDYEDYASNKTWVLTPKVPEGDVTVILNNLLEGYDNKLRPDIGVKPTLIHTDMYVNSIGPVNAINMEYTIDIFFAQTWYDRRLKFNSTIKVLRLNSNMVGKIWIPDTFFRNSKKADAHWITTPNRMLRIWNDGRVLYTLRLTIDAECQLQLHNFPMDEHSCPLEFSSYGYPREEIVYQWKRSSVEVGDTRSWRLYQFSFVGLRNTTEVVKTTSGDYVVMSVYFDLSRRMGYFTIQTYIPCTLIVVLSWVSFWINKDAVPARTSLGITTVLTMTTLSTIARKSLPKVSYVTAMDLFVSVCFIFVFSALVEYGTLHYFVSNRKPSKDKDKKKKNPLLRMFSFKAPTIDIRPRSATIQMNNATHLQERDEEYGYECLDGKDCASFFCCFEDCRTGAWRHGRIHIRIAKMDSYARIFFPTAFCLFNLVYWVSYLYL
measured_parameter: α1 PAM (% enhancement of gamma-aminobutyric acid current) (%)
Answers are plain numbers, in %.

CCn1cnc2c(-c3ccc(F)c(-c4ccc(C(=O)N(C)C)cc4OC)c3)cnnc21 −1
CN1Cc2cc(-c3cc(-c4cnnc5c4ncn5C4CC4)ccc3F)ccc2C1=O −12
CC(C)n1cnc2c(-c3ccc(F)c(-c4ccc5c(c4)CN(C)C5=O)c3)cnnc21 12

Could you share which α1 PAM (% enhancement of gamma-aminobutyric acid current) value was measured for CCn1cnc2c(-c3ccc(F)c(-c4ccc(C(N)=O)cc4)c3)cnnc21 ?
−55
